All values here come from ChEMBL document CHEMBL3112553.

Tested on: PC-3
Assay: Antiproliferative activity against human PC3 cells by MTT assay
Assay type: functional, cell-based
recordedMetric: IC50 (µM)

Past entries and their recorded results:
C[C@]12CCC(=O)N[C@@H]1CC[C@@H]1[C@@H]2CC[C@]2(C)O[C@H](n3cnc4c(NN)nc(Cl)nc43)CC[C@@H]12 : 2.99
CC(CO)Nc1nc(Cl)nc2c1ncn2[C@@H]1CC[C@H]2[C@@H]3CC[C@H]4NC(=O)CC[C@]4(C)[C@H]3CC[C@]2(C)O1 (some centres not stated) : 2.84
C[C@]12CCC(=O)N[C@@H]1CC[C@@H]1[C@@H]2CC[C@]2(C)O[C@H](n3cnc4c(NN)ncnc43)CC[C@@H]12 : 87.2
Cc1ccc(CNc2ncnc3c2ncn3[C@@H]2CC[C@H]3[C@@H]4CC[C@H]5NC(=O)CC[C@]5(C)[C@H]4CC[C@]3(C)O2)cc1 : 44.2

(A) C[C@]12CCC(=O)N[C@@H]1CC[C@@H]1[C@@H]2CC[C@]2(C)O[C@H](n3cnc4c(NCc5ccc(F)cc5)ncnc43)CC[C@@H]12
(B) CC(CO)Nc1ncnc2c1ncn2[C@@H]1CC[C@H]2[C@@H]3CC[C@H]4NC(=O)CC[C@]4(C)[C@H]3CC[C@]2(C)O1 (some centres not stated)
(C) C[C@]12CCC(=O)N[C@@H]1CC[C@@H]1[C@@H]2CC[C@]2(C)O[C@H](n3cnc4c(NCCN)nc(Cl)nc43)CC[C@@H]12
Order by IC50, ascending. List the labels, following the order given in the request.
B, C, A
